Target under test: hGLP-1R (Homo sapiens, UniProt P43220)
Sequence (P43220 24-463): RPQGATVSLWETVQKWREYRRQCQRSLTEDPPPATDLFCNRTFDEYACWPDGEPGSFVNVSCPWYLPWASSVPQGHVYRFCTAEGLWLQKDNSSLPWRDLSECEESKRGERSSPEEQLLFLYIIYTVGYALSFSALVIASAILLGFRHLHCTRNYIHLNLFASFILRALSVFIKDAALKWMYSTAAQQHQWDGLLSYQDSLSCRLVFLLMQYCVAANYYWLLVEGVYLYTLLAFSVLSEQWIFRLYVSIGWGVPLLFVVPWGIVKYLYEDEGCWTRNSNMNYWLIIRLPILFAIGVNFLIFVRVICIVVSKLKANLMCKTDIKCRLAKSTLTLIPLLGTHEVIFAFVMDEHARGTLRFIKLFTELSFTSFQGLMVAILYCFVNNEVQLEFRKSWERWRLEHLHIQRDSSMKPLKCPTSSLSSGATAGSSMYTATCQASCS
Method notes: cell-based or functional assay
Simple rule here: Relative cAMP EC50, nM (0.1% casein) less than 1 nM is Met, otherwise Not met.

Worked set:
[
  {
    "Binder": "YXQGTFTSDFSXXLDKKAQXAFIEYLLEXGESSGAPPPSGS (non-natural residues (Aib, Orn, αMeL); lipidated K; C-terminal amide; synthetic construct; SITE 2: note = 2-Aminoisobutyric Acid; SITE 12: note = L-ornithine; SITE 13: note = alpha-methyl-leucine; SITE 17: note = Lysine is chemically modified through conjugation of the epsilon-amino group of the Lysine side chain with (2-[2-(2-Amino-ethoxy)-ethoxy]-acetyl)2-(gamma-Glu)) [Example 179]",
    "Answer label": "Not met"
  },
  {
    "Binder": "YXQGTXTSDXXEXLDXKAQXXFIEXLIEGGPSSGEPPPE (synthetic construct; SITE 2: note = 2-Aminoisobutyric Acid; SITE 6: note = alpha-methyl-2-fluoro-L-phenylalanine; SITE 10: note = 3-(4-Pyridyl)-L-alanine; SITE 11: note = alpha-methyl-L-serine; SITE 13: note = alpha-methyl-leucine; SITE 16: note = L-ornithine; SITE 17: note = Lysine is chemically mo) [Example 447]",
    "Answer label": "Met"
  },
  {
    "Binder": "HXQGTXTSDXXIXLDXKAQXAFIEYLLEGGPSSGEPPPE (synthetic construct; SITE 2: note = 2-Aminoisobutyric Acid; SITE 6: note = alpha-methyl-2-fluoro-L-phenylalanine; SITE 10: note = 3-(4-Pyridyl)-L-alanine; SITE 11: note = alpha-methyl-L-serine; SITE 13: note = alpha-methyl-leucine; SITE 16: note = L-ornithine; SITE 17: note = Lysine is chemically mo) [Example 466]",
    "Answer label": "Met"
  },
  {
    "Binder": "YXQGTFTSDFSXXLDKKAQXAFIEYLLAGGPSSGEPPPEGS (Aib, Orn, αMeL; acylated Lys (AEEA-γGlu-C18 diacid); C-terminal amide; synthetic construct; SITE 2: note = 2-Aminoisobutyric Acid; SITE 12: note = L-ornithine; SITE 13: note = alpha-methyl-leucine; SITE 17: note = Lysine is chemically modified through conjugation of the epsilon-amino group of the Lysine side chain with (2-[2-(2-Amino-ethoxy)-ethoxy]-acetyl)-(gamma-Glu)) [Example 152]",
    "Answer label": "Not met"
  }
]

Does YXQGTXTSDXXIXLDXKAQXXFIEXLIEGGPSSGEPEPSEG (synthetic construct; SITE 2: note = 2-Aminoisobutyric Acid; SITE 6: note = alpha-methyl-2-fluoro-L-phenylalanine; SITE 10: note = 3-(4-Pyridyl)-L-alanine; SITE 11: note = alpha-methyl-L-serine; SITE 13: note = alpha-methyl-leucine; SITE 16: note = L-ornithine; SITE 17: note = Lysine is chemically mo) [Example 481] have Relative cAMP EC50, nM (0.1% casein) strictly under 1 nM?
Met

Does YXQGTFTSDFSXXLDKKAQXAFIEWLLEGGSSSGAPPPSGS (non-natural residues; lipidated Lys AEEA-γGlu-C18 diacid; C-term amide; synthetic construct; SITE 2: note = 2-Aminoisobutyric Acid; SITE 12: note = L-ornithine; SITE 13: note = alpha-methyl-leucine; SITE 17: note = Lysine is chemically modified through conjugation of the epsilon-amino group of the Lysine side chain with (2-[2-(2-Amino-ethoxy)-ethoxy]-acetyl)-(gamma-Glu)) [Example 173] have Relative cAMP EC50, nM (0.1% casein) strictly under 1 nM?
Not met

Reference source: patent US20240270821A1
